Reference source for all entries: ChEMBL document CHEMBL3621176

# System Name: ATP-sensitive inward rectifier potassium channel 1 (Homo sapiens, UniProt P48048)
# Sequence (P48048 whole entry): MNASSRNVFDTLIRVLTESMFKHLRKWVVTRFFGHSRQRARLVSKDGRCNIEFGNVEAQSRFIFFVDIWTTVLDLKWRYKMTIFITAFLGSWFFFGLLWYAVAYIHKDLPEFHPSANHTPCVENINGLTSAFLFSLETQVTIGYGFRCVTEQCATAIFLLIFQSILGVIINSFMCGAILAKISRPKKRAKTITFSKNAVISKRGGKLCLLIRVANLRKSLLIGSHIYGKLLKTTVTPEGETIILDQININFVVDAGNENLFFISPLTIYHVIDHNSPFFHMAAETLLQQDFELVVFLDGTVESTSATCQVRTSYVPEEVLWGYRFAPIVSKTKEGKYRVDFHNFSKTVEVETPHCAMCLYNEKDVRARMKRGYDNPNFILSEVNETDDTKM
# Assay Summary: Inhibition of human Kir1.1 expressed in HEK293 cells by thallium flux assay
# Assay type: cell-based
Assay Endpoint: IC50 (nM)

Completed entries (count: 5):
Cc1nc(N2CCC3(CCN(C[C@H](O)c4ccc5c(c4C)COC5=O)CC3)C2)ccc1C#N ... 14
Cc1cc(N2CCC3(CCN(C[C@H](O)c4ccc5c(c4C)COC5=O)CC3)C2)ncc1C#N ... 17
Cc1c([C@@H](N)CN2CCC3(CC2)CC(=O)N(c2ccc(C#N)cn2)C3)ccc2c1COC2=O ... 14
Cc1c([C@@H](O)CN2CCC3(CC2)CCN(c2ccc(C#N)cc2)C3)ccc2c1COC2=O ... 15
Cc1c([C@@H](O)CN2CCC3(CC2)CCN(c2ncc(C#N)cn2)CC3)ccc2c1COC2=O ... 14

(a) Cc1c([C@@H](O)CN2CCC3(CC2)CCN(c2ccc(C#N)nn2)CC3)ccc2c1COC2=O
(b) Cc1c([C@@H](O)CN2CCC3(CC2)CCN(c2cnc(C#N)cn2)CC3)ccc2c1COC2=O
(c) Cc1cc(C#N)cnc1N1CCC2(CCN(C[C@H](O)c3ccc4c(c3C)COC4=O)CC2)C1
Problem: Form: Sort by [IC50] Order [ ascending ] Please list the labels according to the requested order.
Result: b, a, c
(b: 9 nM, a: 13 nM, c: 20 nM)
